targetEntity: Recombinant JAK1 (Homo sapiens, UniProt P23458)
Construct: purchased Carna Biosciences
Sequence (P23458 whole entry): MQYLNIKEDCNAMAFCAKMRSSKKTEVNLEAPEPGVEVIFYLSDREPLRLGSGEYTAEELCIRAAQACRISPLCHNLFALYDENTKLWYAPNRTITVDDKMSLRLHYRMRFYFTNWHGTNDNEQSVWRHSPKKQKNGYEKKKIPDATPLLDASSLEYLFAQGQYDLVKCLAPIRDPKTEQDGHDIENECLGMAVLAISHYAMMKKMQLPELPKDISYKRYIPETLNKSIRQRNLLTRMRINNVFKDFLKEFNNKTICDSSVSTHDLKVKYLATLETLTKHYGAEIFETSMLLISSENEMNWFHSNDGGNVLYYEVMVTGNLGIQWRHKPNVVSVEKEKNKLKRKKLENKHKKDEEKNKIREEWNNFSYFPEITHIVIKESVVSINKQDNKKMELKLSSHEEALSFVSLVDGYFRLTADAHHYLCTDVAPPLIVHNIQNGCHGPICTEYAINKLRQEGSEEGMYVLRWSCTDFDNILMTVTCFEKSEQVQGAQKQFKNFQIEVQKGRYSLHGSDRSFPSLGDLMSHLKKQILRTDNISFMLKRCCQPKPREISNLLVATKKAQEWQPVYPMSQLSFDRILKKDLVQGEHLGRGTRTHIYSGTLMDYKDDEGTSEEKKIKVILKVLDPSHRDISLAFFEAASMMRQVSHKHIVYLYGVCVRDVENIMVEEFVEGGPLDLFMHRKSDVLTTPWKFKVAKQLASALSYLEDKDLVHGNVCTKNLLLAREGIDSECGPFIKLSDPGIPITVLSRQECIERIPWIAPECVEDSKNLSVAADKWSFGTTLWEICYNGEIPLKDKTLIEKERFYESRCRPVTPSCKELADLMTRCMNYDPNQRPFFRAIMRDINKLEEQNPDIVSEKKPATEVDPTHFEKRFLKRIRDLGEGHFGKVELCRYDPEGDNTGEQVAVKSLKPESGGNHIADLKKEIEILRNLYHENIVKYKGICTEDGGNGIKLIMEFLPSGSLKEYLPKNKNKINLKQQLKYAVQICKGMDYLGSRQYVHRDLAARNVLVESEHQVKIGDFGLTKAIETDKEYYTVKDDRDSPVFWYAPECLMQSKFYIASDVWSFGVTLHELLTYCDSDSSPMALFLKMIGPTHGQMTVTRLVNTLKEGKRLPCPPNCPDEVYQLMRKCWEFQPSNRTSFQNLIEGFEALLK
testSummary: JAK biochemical assay (LANCE Ultra TR-FRET), JAK1
studyConditions: recombinant JAK1, TR-FRET; read-out: Biochemical Assay (μM) JAK1
Where a name gives a salt, the structure may show the parent alone.
# Lookup of reported IC50 keyed by entry
valueType: IC50

| compound | readoutValue |
| --- | --- |
| CS(=O)(=O)CCC(c1ccc(-n2cc(-c3ccnc4[nH]cnc34)cn2)cc1)C(F)(F)F (centres unmarked) | < 0.1 µM |
| CC(C)C(C#N)NC(=O)n1cc(-c2ccnc3[nH]c(=O)[nH]c23)cn1 (centres unmarked) | < 0.5 µM |
| O=S(=O)(CCC(c1ccc(-n2cc(-c3ccnc4[nH]cnc34)cn2)nc1)C(F)(F)F)CC1CC1 (centres unmarked) | < 0.1 µM |
| CC(C)NCCOC(c1ccc(-n2cc(-c3ccnc4[nH]cnc34)cn2)nc1)C(F)(F)F (centres unmarked) [Example 1241, TFA salt] | < 0.1 µM |
| N#CC1CCN(C(=O)n2cc(-c3ccnc4[nH]c(=O)[nH]c34)cn2)C1 (centres unmarked) | > 1 µM |
| N#CC1CC(NC(=O)n2cc(-c3ccnc4[nH]c(=O)[nH]c34)cn2)C1 (centres unmarked) | < 0.5 µM |
| OC(Cc1ccc(-n2cc(-c3ccnc4[nH]cnc34)cn2)nc1)C(F)(F)F (centres unmarked) | > 0.1 µM |
| OC(c1ccc(-n2cc(-c3ccnc4[nH]cnc34)cn2)nc1)(C1CC1)C(F)(F)F (centres unmarked) | 0.003 µM |
| COCCC(C#N)NC(=O)n1cc(-c2ccnc3[nH]cnc23)cn1 (centres unmarked) | > 0.5 µM |
| CC(C)N1CCC([C@@](O)(c2ccc(-n3cc(-c4ccnc5[nH]cnc45)cn3)cc2)C(F)(F)F)C1 (some centres unmarked) | < 0.1 µM |
| N#CC1CN(C(=O)CCC(c2ccc(-n3cc(-c4ccnc5[nH]cnc45)cn3)nc2)C(F)(F)F)C1 (centres unmarked) | < 0.1 µM |
| N#CCc1csc(-n2cc(-c3ccnc4[nH]cnc34)cn2)n1 | 0.037 µM |
| O=C(NCC1CCCC1)n1cc(-c2ccnc3[nH]c(=O)[nH]c23)cn1 | > 1 µM |
| CS(=O)(=O)CCC(C#N)c1ccc(-n2cc(-c3ccnc4[nH]cnc34)cn2)nc1 (centres unmarked) | > 0.1 µM |
| CC(C)N1CCC([C@](O)(c2ccc(-n3cc(-c4ccnc5[nH]cnc45)cn3)nc2)C(F)(F)F)C1 (some centres unmarked) | < 0.01 µM |
| N#CCC(NC(=O)n1cc(-c2ccnc3[nH]cnc23)cn1)C1CCOCC1 (centres unmarked) | > 0.5 µM |
| N#CCNC(=O)n1cc(-c2ccnc3[nH]c(=O)[nH]c23)cn1 [Example 1027] | 0.028 µM |
| OCc1ccc(-n2cc(-c3ccnc4[nH]cnc34)cn2)nc1 | > 0.5 µM |
| CNC(=O)CC(c1ccc(-n2cc(-c3ccnc4[nH]cnc34)cn2)nc1)C(F)(F)F (centres unmarked) | < 0.1 µM |
| O=C(NCCC(c1ccc(-n2cc(-c3ccnc4[nH]cnc34)cn2)nc1)C(F)(F)F)C1CCCC1 (centres unmarked) | < 0.1 µM |
| CCN1CCC([C@](O)(c2ccc(-n3cc(-c4ccnc5[nH]cnc45)cn3)nc2)C(F)(F)F)C1 (some centres unmarked) | < 0.1 µM |
| N#CC(c1ccc(-n2cc(-c3ccnc4[nH]cnc34)cn2)cc1)C1CC1 (centres unmarked) | > 0.5 µM |
| FC(F)(F)C(CNC1CC1)c1ccc(-n2cc(-c3ccnc4[nH]cnc34)cn2)nc1 (centres unmarked) | < 0.1 µM |
| CCCS(=O)(=O)NC1CCN(C(=O)n2cc(-c3ccnc4[nH]cnc34)cn2)C1 (centres unmarked) | > 10 µM |
| CC(C)NCC[C@@H](c1ccc(-n2cc(-c3ccnc4[nH]cnc34)cn2)nc1)C(F)(F)F | 0.005 µM |
| CC(C)NC(=O)CC[C@@H](c1ccc(-n2cc(-c3ccnc4[nH]cnc34)cn2)nc1)C(F)(F)F | < 0.1 µM |
| CNCCC(c1ccc(-n2cc(-c3ccnc4[nH]cnc34)cn2)nc1)C(F)(F)F (centres unmarked) [Example 1198] | < 0.1 µM |
| FC(F)(F)[C@H](c1ccc(-n2cc(-c3ccnc4[nH]cnc34)cn2)nc1)C1COC1 (single isomer, unassigned) | < 0.1 µM |
| N#CC(c1ccc(-n2cc(-c3ccnc4[nH]cnc34)cn2)nc1)N1CCS(=O)(=O)CC1 (centres unmarked) | > 1 µM |
| CC(O)(c1ccc(-n2cc(-c3ccnc4[nH]cnc34)cn2)nc1)C(F)(F)F (centres unmarked) | 0.004 µM |
| CS(=O)(=O)NCc1ccc(-n2cc(-c3ccnc4[nH]cnc34)cn2)nc1 | 0.053 µM |
| O=C(CCC(c1ccc(-n2cc(-c3ccnc4[nH]cnc34)cn2)nc1)C(F)(F)F)NC1CC1 (centres unmarked) | < 0.1 µM |

----------
# Lookup of reported IC50 keyed by entry
targetEntity: Recombinant JAK2 (Homo sapiens, UniProt O60674)
Construct: purchased Carna Biosciences
Sequence (O60674 whole entry): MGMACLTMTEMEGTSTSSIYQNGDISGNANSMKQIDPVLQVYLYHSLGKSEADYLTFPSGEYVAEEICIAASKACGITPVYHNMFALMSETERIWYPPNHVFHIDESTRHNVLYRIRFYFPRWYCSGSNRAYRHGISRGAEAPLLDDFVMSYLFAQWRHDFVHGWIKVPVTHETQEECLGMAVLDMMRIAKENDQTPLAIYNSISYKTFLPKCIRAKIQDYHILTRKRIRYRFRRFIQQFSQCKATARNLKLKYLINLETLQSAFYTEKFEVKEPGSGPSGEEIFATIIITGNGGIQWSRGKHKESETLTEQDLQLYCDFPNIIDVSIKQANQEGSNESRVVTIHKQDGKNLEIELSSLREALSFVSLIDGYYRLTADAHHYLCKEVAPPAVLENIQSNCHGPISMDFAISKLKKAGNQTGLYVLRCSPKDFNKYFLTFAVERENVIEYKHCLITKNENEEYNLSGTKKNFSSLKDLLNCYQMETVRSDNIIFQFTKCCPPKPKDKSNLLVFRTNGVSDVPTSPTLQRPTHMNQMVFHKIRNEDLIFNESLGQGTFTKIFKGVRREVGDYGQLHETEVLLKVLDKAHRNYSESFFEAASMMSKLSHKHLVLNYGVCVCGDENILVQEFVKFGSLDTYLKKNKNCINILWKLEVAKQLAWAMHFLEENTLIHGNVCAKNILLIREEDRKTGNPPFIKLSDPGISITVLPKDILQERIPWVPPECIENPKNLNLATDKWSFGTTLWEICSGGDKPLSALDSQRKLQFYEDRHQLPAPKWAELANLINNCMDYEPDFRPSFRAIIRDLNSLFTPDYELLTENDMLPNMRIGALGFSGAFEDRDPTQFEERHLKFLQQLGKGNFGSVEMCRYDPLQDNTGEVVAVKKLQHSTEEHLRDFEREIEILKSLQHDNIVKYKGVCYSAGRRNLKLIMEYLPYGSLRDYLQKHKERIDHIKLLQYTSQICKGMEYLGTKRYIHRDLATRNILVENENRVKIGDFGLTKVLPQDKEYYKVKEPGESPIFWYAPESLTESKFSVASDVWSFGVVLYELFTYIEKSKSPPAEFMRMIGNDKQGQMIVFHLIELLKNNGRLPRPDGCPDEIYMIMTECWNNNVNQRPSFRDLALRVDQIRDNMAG
testSummary: JAK biochemical assay (LANCE Ultra TR-FRET), JAK2
studyConditions: read-out: Biochemical IC50 (nM) JAK2

| compound | IC50 |
| --- | --- |
| CS(=O)(=O)CC[C@@H](c1ccc(-n2cc(-c3ccnc4[nH]cnc34)cn2)nc1)C(F)(F)F | 105 nM |
| CN1CCC(C(O)(c2ccc(-n3cc(-c4ccnc5[nH]cnc45)cn3)nc2)C(F)(F)F)CC1 (stereo not drawn) | 152 nM |
| CC(C)NC(=O)CC[C@@H](c1ccc(-n2cc(-c3ccnc4[nH]cnc34)cn2)nc1)C(F)(F)F | 40 nM |

----------
targetEntity: Recombinant TYK2 (Homo sapiens, UniProt P29597)
Construct: purchased Carna Biosciences
Sequence (P29597 whole entry): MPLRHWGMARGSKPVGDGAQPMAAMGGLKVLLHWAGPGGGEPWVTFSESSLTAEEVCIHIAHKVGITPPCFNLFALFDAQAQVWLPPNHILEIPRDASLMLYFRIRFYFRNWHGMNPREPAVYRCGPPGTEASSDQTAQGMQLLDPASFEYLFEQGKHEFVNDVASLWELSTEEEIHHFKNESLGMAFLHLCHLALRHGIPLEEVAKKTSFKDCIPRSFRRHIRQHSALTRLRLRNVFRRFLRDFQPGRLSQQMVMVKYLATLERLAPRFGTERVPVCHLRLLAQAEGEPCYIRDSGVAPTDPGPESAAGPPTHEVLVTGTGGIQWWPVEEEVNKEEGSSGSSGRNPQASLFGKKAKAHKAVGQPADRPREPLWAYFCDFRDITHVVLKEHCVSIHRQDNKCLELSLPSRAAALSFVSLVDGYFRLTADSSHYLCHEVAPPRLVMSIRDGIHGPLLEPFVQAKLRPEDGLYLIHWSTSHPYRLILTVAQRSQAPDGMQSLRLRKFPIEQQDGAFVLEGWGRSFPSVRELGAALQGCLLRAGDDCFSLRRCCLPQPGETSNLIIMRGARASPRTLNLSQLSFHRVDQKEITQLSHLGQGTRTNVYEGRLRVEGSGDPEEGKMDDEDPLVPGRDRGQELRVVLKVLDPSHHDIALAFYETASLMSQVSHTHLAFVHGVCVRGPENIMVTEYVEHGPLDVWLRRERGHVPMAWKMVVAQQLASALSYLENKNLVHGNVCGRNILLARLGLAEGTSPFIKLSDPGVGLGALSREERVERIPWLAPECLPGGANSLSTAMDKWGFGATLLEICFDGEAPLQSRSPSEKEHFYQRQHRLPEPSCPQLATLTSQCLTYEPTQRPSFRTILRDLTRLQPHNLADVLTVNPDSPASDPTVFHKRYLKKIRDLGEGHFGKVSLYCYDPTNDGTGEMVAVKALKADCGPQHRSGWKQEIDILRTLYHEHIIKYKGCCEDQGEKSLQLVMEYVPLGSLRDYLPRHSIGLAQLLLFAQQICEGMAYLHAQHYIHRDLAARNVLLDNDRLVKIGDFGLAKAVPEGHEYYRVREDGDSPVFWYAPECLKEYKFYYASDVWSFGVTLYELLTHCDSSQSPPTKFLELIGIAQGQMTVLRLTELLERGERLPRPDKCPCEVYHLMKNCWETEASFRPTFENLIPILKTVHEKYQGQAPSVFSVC
testSummary: JAK biochemical assay (LANCE Ultra TR-FRET), TYK2
studyConditions: recombinant TYK2, TR-FRET; read-out: Biochemical Assay (μM) TYK2
Method: Recombinant JAK1, JAK2, JAK3 and TYK2 (Carna Biosciences) were used to develop biochemical assays in 50 mM HEPES pH 7.5, 1 mM EGTA, 10 mM MgCl2, 2 mM DTT and 0.01% Tween-20. […] The intensity of the light emission is proportional to the level of ULight substrate phosphorylation. Compounds which interfere with JAK enzyme activity show a lesser substrate phosphorylation and values are projected in terms of % inhibition in comparison to vehicle control.
Where a name gives a salt, the structure may show the parent alone.
# Lookup of reported IC50 keyed by entry

| molecule | IC50 |
| --- | --- |
| CC(C)NC(=O)CCC(O)(c1ccc(-n2cc(-c3ccnc4[nH]cnc34)cn2)nc1)C(F)(F)F (stereo not shown) | > 0.1 µM |
| CC(=O)N1CC(C(O)(c2ccc(-n3cc(-c4ccnc5[nH]cnc45)cn3)nc2)C(F)(F)F)C1 (stereo not shown) | > 0.1 µM |
| CS(=O)(=O)NCc1ccc(-n2cc(-c3ccnc4[nH]cnc34)cn2)nc1 | > 1 µM |
| N#CCC(NC(=O)n1cc(-c2ccnc3[nH]c(=O)[nH]c23)cn1)C1CCCC1 (stereo not shown) | < 0.5 µM |
| CC1(C)CN(C(=O)n2cc(-c3ccnc4[nH]c(=O)[nH]c34)cn2)C1 | > 0.5 µM |
| COCCC(C#N)NC(=O)n1cc(-c2ccnc3[nH]cnc23)cn1 (stereo not shown) | > 0.5 µM |
| CC(N)CCC(c1ccc(-n2cc(-c3ccnc4[nH]cnc34)cn2)nc1)C(F)(F)F (stereo not shown) [Example 1224, TFA salt] | > 0.1 µM |
| O[C@@](c1ccc(-n2cc(-c3ccnc4[nH]cnc34)cn2)nc1)(C1CCN(C2COC2)C1)C(F)(F)F (stereo partly shown) | > 1 µM |
| O=C(Cc1ccc(-n2cc(-c3ccnc4[nH]cnc34)cn2)nc1)NCC(F)(F)F | > 1 µM |
| CC(C)NCC[C@@H](c1ccc(-n2cc(-c3ccnc4[nH]cnc34)cn2)nc1)C(F)(F)F | > 0.5 µM |
| N#CCc1cccc(-n2cc(-c3ccnc4[nH]cnc34)cn2)c1 | > 1 µM |
| COC(c1ccc(-n2cc(-c3ccnc4[nH]cnc34)cn2)nc1)(C1CC1)C(F)(F)F (stereo not shown) | > 1 µM |
| CC(C)OC(c1ccc(-n2cc(-c3ccnc4[nH]cnc34)cn2)nc1)C(F)(F)F (stereo not shown) | > 1 µM |
| CC(C)N1CCC([C@@](O)(c2ccc(-n3cc(-c4ccnc5[nH]cnc45)cn3)cc2)C(F)(F)F)C1 (stereo partly shown) | > 0.5 µM |
| CS(=O)(=O)CC[C@H](c1ccc(-n2cc(-c3ccnc4[nH]cnc34)cn2)nc1)C(F)(F)F | > 1 µM |
| N#CCC(=O)Nc1ccc(-n2cc(-c3ccnc4[nH]cnc34)cn2)cc1 | > 1 µM |
